The origin of these recorded values is patent US20110098217A1.

biological target: human GLP-1 receptor (human, UniProt P43220 24-463); experiment: cell-based or functional assay
Bridge positions count the residues as written; N and C are the ends. Square brackets hold non-standard residues; d marks the D form. Primed or numbered codes have the meaning given here. Side chains are listed from the residue outwards. Ends that are not written are not given here. PEG 20 kDa″ = 20 kDa polyethylene glycol (PEG); PEG 20 kDa = 20 kDa polyethylene glycol; PhLac = O=C(O)[C@@H](O)Cc1ccccc1; Mpa = O=C(O)CCS
Please provide measured GLP-1 agonism EC50 for the entries that follow.

// [PhLac]TSDYSKYLDERRAKDFVK([3‑aminoprop‑1‑ynyl‑benzoic acid-Mpa-PEG 20 kDa])WLMDT-NH2 (lactam 11-15) [[PLA6,E16K20(Lactam), K24(rigid-S-20 kDa)]G(6-29)] : GLP-1 agonism EC50 value = 1360 to 2680 nM

The binder listed as [PhLac]TSDYSKYLDERRAQDFVC(PEG 20 kDa)WLMDT-NH2 (lactam 7-11) [[PLA6, K12E16(lactam), C24(20 kDa), D28]G(6-29)] shows GLP-1 agonism EC50 equal to 550 to 753 nM

Given item [PhLac]TSDYSKYLDERRAKDFVK([Mpa-PEG 20 kDa″])WLMDT-NH2 (lactam 11-15) [[PLA6, E16K20(Lactam), K24(COCH2CH2S-20 kDa)] G(6-29)] , the value recorded as its GLP-1 agonism EC50 is 16 to 20 nM

Reported GLP-1 agonism EC50 ( [PhLac]TSDYSKYLDERRAKDFVQWLMDTGPSSGAPPPSC(PEG 20 kDa″)-NH2 (lactam 11-15) [[PLA6, E16K20(Lactam), D28,CEX-C40(20 kDa)]G(6-40)] ) = 75 to 100 nM

// GLP-1 agonism EC50 value for [PhLac]TSEYSKYLDERRAKDFVC(PEG 20 kDa″)WLMNT-NH2 (lactam 11-15) [[PLA6, E9,E16K20(Lactam), C24(20 kDa)]G(6-29)] : 825 nM
